Molecular target: 5-HT1A (Rattus norvegicus, UniProt P19327)
Construct: rat brain were purchased from Pel-Freez; tissue Pel-Freez (Roger, AR); host or cells: rat brain (cortex) membranes
Sequence (P19327 whole entry): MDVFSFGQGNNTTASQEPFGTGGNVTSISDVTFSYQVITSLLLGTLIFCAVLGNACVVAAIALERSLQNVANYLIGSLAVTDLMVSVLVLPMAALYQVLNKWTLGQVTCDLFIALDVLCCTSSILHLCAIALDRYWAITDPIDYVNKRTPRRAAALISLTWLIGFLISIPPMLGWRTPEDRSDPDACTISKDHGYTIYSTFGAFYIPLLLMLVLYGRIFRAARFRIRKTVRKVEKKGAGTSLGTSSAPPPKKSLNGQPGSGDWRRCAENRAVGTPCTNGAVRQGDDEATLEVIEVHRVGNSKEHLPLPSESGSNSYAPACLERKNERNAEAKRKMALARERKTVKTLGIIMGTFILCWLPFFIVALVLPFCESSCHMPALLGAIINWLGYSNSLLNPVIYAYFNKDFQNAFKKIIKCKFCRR
Experiment: Radioligand binding, 5-HT1A sites labeled by ^3 H-8-OH-DPAT, rat cortex
Settings: mean ± standard error of 3-4 experiments
Measurement type: IC50

>  <Compound>
COC(=O)/C=C/C(=O)NC(C)(C)[C@H]1CC[C@@](C)(NCC(O)COc2cccc3[nH]ccc23)CC1 (some centres unmarked)

>  <Val>
31 nM

$$$$

Okay, next one:
Please look up its IC50: CC(C)(NCC(O)COc1cccc2[nH]ccc12)[C@H]1CC[C@@](C)(NC(=O)CBr)CC1 (some centres unmarked)
0.71 nM
